molecular target: T1, recombinant human CD3 epsilon/delta heterodimer (human, UniProt P07766 23-126; P04234 22-105); experiment: Octet BLI, mAb on FAB2G sensor, hCD3 E/D 200-50 nM; R^2 0.98;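 note: antibodies purified from hybridoma supernatants, measured by Octet binding to recombinant human CD3 protein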
T1 construct: Recombinant protein in solution (200-50 nM) in the Octet assay; also called hCD3 E/D; human CD3E/D
T1 sequence (P07766 23-126, stated change not applied, chain 1 of 2): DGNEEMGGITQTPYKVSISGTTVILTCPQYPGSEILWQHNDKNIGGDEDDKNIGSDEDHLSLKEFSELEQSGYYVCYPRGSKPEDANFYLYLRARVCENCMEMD
T1 sequence (P04234 22-105, stated change not applied, chain 2 of 2): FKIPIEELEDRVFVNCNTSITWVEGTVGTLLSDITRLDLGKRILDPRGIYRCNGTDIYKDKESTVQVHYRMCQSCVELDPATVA
readout: Response
Respond using a number only.

Sample ABL-CD3-57 (antibody, V domains shown, Chimeric hybridoma mAb: human V, CH1, upper hinge; mouse middle hinge, CH2, CH3) VH: EVQLVESGGGLVKPGGSLRLSCAASGFTFSSYTMNWVRQAPGKGLEWVSSISTSSRYIYYTDSVKGRFTISRDDAKNSLYLQMNSLRAEDTAVYYCTRNWGYDVFDIWGQGTMVIVSS VL: QPVLTQPSSHSASSGASVRLTCMLSSGFSVGDFWIRWYQQKPGNPPRYLLYYHSDSNKGQGSGVPSRFSGSNDASANAGILRISGLQPEDEADYYCGTWHSNSKTQVFGGGTKLTVL — what was its Response?
0.49

Sample ABL-CD3-61 (antibody, V domains shown, Chimeric hybridoma mAb: human V, CH1, upper hinge; mouse middle hinge, CH2, CH3) VH: EVQLVESGGGLVKPGGSLRLSCAASGFTFSSYSMNWVRQAPGKGLEWVSSISRSGTYIYYADSVKGRFTISRDNAKNSLYLQMNSLRAEDTAVYYCARERWELLYFDYWGQGTLVTVSS VL: QTVVTQEPSLTVSPGGTVTLTCASSTGAVTSGYYPNWFQQKPGQAPRALIYSTSNKHSWTPARFSGSLLGGKAALTLSGVQPEDEAEYYCLLYYGGAYVFGTGTKVTVL — what was its Response?
0.26

Sample ABL-CD3-62 (antibody, V domains shown, Chimeric hybridoma mAb: human V, CH1, upper hinge; mouse middle hinge, CH2, CH3) VH: EVQLVESGGGLVKPGGSLRLSCAASGFTFSSYSMNWVRQAPGKGLEWVSSISRSSGYIFYADSVKGRFTISRDNAKNSLYLQMNSLRAEDTAVYYCVRERVGAGFDYWGQGTLVTVSS VL: NFMLTQPHSVSESPGKTVAISCTRSSGSIASNYVQWYQQRPGSSPTAVIYEDNQRPSGVPDRFSGSIDSSSNSAFLTISGLKTEDEADYYCQSYDSSNRVFGGGTKLTVL — what was its Response?
0.56
